# Study Target: quisqualic acid stimulated 3H-GABA efflux from cultured cortical neurones (quisqualate receptors)
# Procedure Details: Release experiments: antagonism of quisqualic acid stimulated 3H-GABA efflux from cultured cortical neurones
# Format: cell-based, mouse
# Assay Conditions: Table 1 Ki; test not stated
Recorded measurements of Ki, one per entry
# unit: µg/mL | format: bare number

// known answers, use as guide
Smiles Representation: NS(=O)(=O)c1cc2c(cc1C(F)(F)F)[nH]c(=O)c(=O)n2O
Property Measured: Ki
Value Units: µg/mL
Assay Value: 0.02
--
Smiles Representation: N#Cc1cc2c(cc1C(F)(F)F)[nH]c(=O)c(=O)n2O
Property Measured: Ki
Value Units: µg/mL
Assay Value: 0.08
--
Smiles Representation: CC(=O)c1cc2c(cc1C#N)[nH]c(=O)c(=O)n2O
Property Measured: Ki
Value Units: µg/mL
Assay Value: 0.27

Alright, here's another compound for you.
(Q) GET /values?readout=Ki&item= `O=c1[nH]c2cc(C(F)(F)F)c(Cl)cc2n(O)c1=O`
(A) 0.12
